Catalogue of mass density values
details: 298.15 K; 101.33 kPa; Liquid; Vibrating tube method
Express the result in kg/m3 but write the number alone.

mass density reading for CCCCCC : 654.9

====

details: 293.15 K; 101.33 kPa; Liquid; Capillary tube (Ostwald / Ubbelohde) method
endpoint: kinematic viscosity (m2/s)
Express the result in m2/s but write the number alone.

Please review the entries below; each comes with its answer.
C1CCCCC1 :: 1.26e-06
CCCCCCCC :: 7.73e-07
CCCCCC :: 4.7e-07

kinematic viscosity reading for Cc1ccccc1 : 6.8e-07

kinematic viscosity reading for CCc1ccccc1 : 7.77e-07

====

conditions: 298.15 K; 101.33 kPa; Liquid; Vibrating tube method
Catalogue of mass density values
Express the result in kg/m3 but write the number alone.

Please review the entries below; each comes with its answer.
CCCCCCCC :: 698.5
Cc1ccccc1 :: 862
CCc1ccccc1 :: 862.7

mass density reading for C1CCCCC1 : 773.9
